test: soluble fraction after stress (log2 fold change); higher = more stays soluble; pooled small domains, quantitative proteomics; conditions: stress: 75 degC;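 also: 20 min heating vs room temperature control held 20 min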
Use -0.5 as the dividing line for soluble fraction (log2), with the line itself on the fulfilled side and lower values as not fulfilled.

SEQ	CLASS_NAME
HMQRDERYVYHTVLAGETIYSLSRKFNVTMDELLESNPALRSGVLTTGSEIRVLKAQMAQNFD	not fulfilled
HMEKERYDTGIGELNRVLGGGLVKGSLILISGDPGIGKSTLLLQTANNISKKYGKVLYVSGEESEEQIKIR	not fulfilled
HMAITLEVAKKHLEMWLEAESEVAINQSYTIGGKSFTRANLAEIRKQIEYWSNKVAELENLA	not fulfilled
HMNEKEAEEAAEAQTEVPDVTGMAPAQAKNMLYQAGLSSEYRGEGETVSRQLPPAGETVNRGTKAVLYL	fulfilled
HMDRMFQPETWSKIYQWVMNDPQVPDKEDVLALIRRHFGNFEKLIKLLHYLDGGKPYAYLSEH	fulfilled

###

experiment: soluble fraction after stress (log2 fold change); higher = more stays soluble; pooled small domains, quantitative proteomics; settings: stress: 75 degC
Use -0.3 as the dividing line for soluble fraction (log2), with the line itself on the met side and lower values as not met.

SEQ	CLASS_NAME
HMYTPDYLSDLMVRMAHHSTAIEGNTLTQGETKSVLVDGYIPRAMDMRELNEVLNYKAFMTFLVE	met
HMFRMTPQRMAILAEVQNAERHLTAAEIYERVRRKYPTIAYGTVYRTLHLLAKHGLIQEFPFGDNASLFDR	met
HMERLKYSQVVDLFKGEQVKSFVLDESNQLKMELQDGSTVSYKLRSFEQFYLDLSDTVKEQKESGIITDYD	not met
HMDSTDSIIHYVRAHRSLEVKNLSFAEARFKKVVELEPNFARGWLGLGEVSILKNNFENASIYLDKALE	met
HMEDELFSVARAAFPEYASKIHMNYGSTVQSIARQSGVLTVSETKQLNENQQISYLEYSNGAVVLALA	met
HMADLIIMSSDATEKQVDKVINKIKNMGFNVNISKGTEKTIIGIIGDTRGISDEVFKIMPGVIEVISILRD	not met
HMRSAKEYKAIREEIYRFIGAYITKHVYAPSNKEIAEAVGISGTTVHRHLIDMIDEGILETD	not met

###

assay: soluble fraction after stress (log2 fold change); higher = more stays soluble; pooled small domains, quantitative proteomics; settings: stress: 75 degC
OBSERVABLE: soluble fraction (log2)

SEQ	OBSERVABLE	TEST_RESULT
HMEYYEDEELDRFRGRNSDQYSDAEIEEFNEILTTLRSEEVAGWIRSLQLREIALPDELKDDVILLVG	soluble fraction (log2)	-0.903
HMTVVSVDDQASASSEAIRTKVAGDSAARMSVDAGGKITWGAGSASGDVTLYRSAANTLKTDDTLVAT	soluble fraction (log2)	0.16
HMERPSLDQVLAHAKALGIAPARFVAYADGRWGTGWRLSPHGRARAWEELDRHRNDPLGYRDKLDVALQSG	soluble fraction (log2)	-0.179
HMKFINISIDKSGNLFINKKSIKFQDLKYNVVNLVDESKNLVVLNADENISHGYVISVLDVLRSIDGLKLA	soluble fraction (log2)	-2.13
HMPTNVYSIIGKEGIVLESIDNLNSTGKVKVNGELWSAISDSNIEKGETIKVLSVNGVKLKVEKVN	soluble fraction (log2)	-0.00656
HMTNIELYQRLLNLGFTPAQAKILLVQYDETRLTDNLNYVDFKKQQGNIENLPAYTTTIIKKDVRL	soluble fraction (log2)	-1.14
HMTTGEIIQRERTRLGLSQEKLAEQVGVSRQAVSKWELGDAVPDTDKLVPLARTLGISVDTLLD	soluble fraction (log2)	0.12
HMIYQEGMQVKYQGKEYVISEIQDYKTYKTIKLDDNEGYLNGFITGSEILSFRNESELDLEI	soluble fraction (log2)	-0.208

###

assay: soluble fraction after stress (log2 fold change); higher = more stays soluble; pooled small domains, quantitative proteomics; conditions: stress: 75 degC
Use -0.7 as the dividing line for soluble fraction (log2), with the line itself on the Yes side and lower values as No.

SEQ	CLASS_NAME
HMTVSADIIQKIIKTSTTDENIITIDSISNSISKLALSKITAEDIIEILEASSLVLRNSNGSWTVL	No
HMFNTWLGEIRSNTGANVRSGPDASAAIVDARPNETVVRVIGQSGNWLQIGDKQFVAQSLVAP	Yes
HMANSREIPKLAGIEQEEAVKQLLDLDLKPVIEEITDDDTDAGDVVRTDPAAGEHVAVDTEITVFISIG	No
HMTKVMVPNVVGMSRGEAEEALRGVKLQVDLKREVSDDPEVKPEEVLRQTPDAQTSVPQGSVVTLYVADKP	Yes
HMEKGWYKLGQDSYYVDDDGKIHKGWLELDGKKYYFDQEGKMVTGTVNIDGKDYTFNEKGELYVS	Yes
HMDGFVFVMPIKETRMFSVNDERPLVGIVKYSNGEFEKEQLIGFRPNSEYEFIIEGQRLYRVPVNSITIK	No
HMSFMFEISVIRSQYNMQDPESKTGFYNAIAKKLLEFPEKLERDNYTEAVAREYMIPETDLKNLVNSMGG	No

###

experiment: soluble fraction after stress (log2 fold change); higher = more stays soluble; pooled small domains, quantitative proteomics; conditions: stress: 75 degC
soluble fraction (log2) values by entry
OBSERVABLE: soluble fraction (log2)

SEQ	TEST_RESULT
HMSAEDYMEMIYRLSQENGFTRVNDLASALNVQPPSVTRMIQKLAELNLIKYEKYGVIMLQPYGIEVGRSL	-2.65
HMAFRIGGFVQEGSVVRQQDGGTVRFEVTDTAHSVPVTYKGSLPDLFKEGKGVVAQGKLMNGTFVADQVLA	0.165
HMRWGDPLTVKVPSFIGQTKDDIAKQHYPFRIEWHGEGAKIGSQLPEVDSVIKQDGTIHLYLV	-0.0635
HMYTTHTQSELNEAARFNGRATYQKGIYYNESKKEHFKVVNGKYQALPNVKQVNGDSWIDKTGITHKG	-0.324
HMDVSPVRLIREARGLSQVEVAKAAGLSRAAYQNIEVGKTVPRASTMVNIARALGVSMDDLLAPV	-0.437
HMKMDGESQRLLSLIKEQGGSLPIGDKSSPEAIYRLTQMSKKTFKMALGSLYKAKQVVLSPTEVRL	-1.45
HMRSPLYVQIKQHILGDIRKGVWKPGEKLPTELDLAERFGVSVGTVRRAMGGLEDEGIISRREGSGTFVRT	-0.458
HMLPLIEVPAVTGKYLTKAKSALKDAGLDTGDIKRVEHEEHGENYVLKQDPPAGTKVPFGTTVSLTVVAP	0.427
HMPVSTLLGDNLRRLRTAKGYTQEAVADAARISVAAYRNYETGRAIPKVNTLLAIARALGVSLNDLVTE	-0.605
HMGPNPLTEREQEILQLARTGEPVARLAKRLFLSPGTVRNHLSSAIGKLGAANRVEAAQFATERGW	0.0399
HMGEAIPVPDIRHKSQADAERLLQDQGLAMMVTDTGYVKTLPANYILEQIPVAGEKVKSGHVVYVIINSG	-0.103
HMSSVGELEVGNIFEGTVNSVRGGKVLLALGNGQMVLAQMDGRVNITPGSSMFFQVKSNDGETVAIRPYTG	-0.247
HMVYLPSSIKNIPTKYGEMMVANFKMDELQANSKNGWVSMVISERREPSEKGATHYAYVNTY	0.484

###

test: soluble fraction after stress (log2 fold change); higher = more stays soluble; pooled small domains, quantitative proteomics; details: stress: 75 degC
Use -0.01 as the dividing line for soluble fraction (log2), with the line itself on the true (1) side and lower values as false (0).

SEQ	CLASS_NAME
HMDQQTKFKTALAALAASAETKDRKLTKADVKEFLEDMDLGEEQMKLVYAYLASKHIHVEGAE	true (1)
HMPQVALAIDEMKRELASPDIVKTLLATTFKGLSEVNMRQAMLDGMIQGHTIADFFKKDVYAIPFGSGYSL	true (1)
HMQGEAMQETVKKLDAFLQDNSVSMSALARALGVSPSLISQFRSGSYKGDSQAIAAKINSYIDNHNKKSK	false (0)
HMKSYQKITPATEGNYLTTYREGDDIKTYEGVKAMYTPADFDASSVREITPEEHQSYQKAKEQALQEETEQ	false (0)
HMKQMNETQQKAFEIYLDSATFETDYKPISEEQLAAKLDALGLKGSSSSINRWKKDFNWAQALQNKVTLAM	false (0)
HMIKDSKAAYKILGVDENATNEEIKKAYRQLVINHHPDKVSHLGEDIQRAANEKLKQINAAYDEIKKQRGF	false (0)

###

soluble fraction (log2) values by entry
test: soluble fraction after stress (log2 fold change); higher = more stays soluble; pooled small domains, quantitative proteomics; details: stress: 75 degC

SEQ	soluble fraction (log2)
HMDTHDVQVPQEGQGLRLDLFLTDHIEGSRSFIQTIIKDGHVILNGKKAKANSRLNEGDYVVWSIPKPE	-0.288
HMDEKLAHKLVSDFRQAAASLERFPFRNPVLRSEVFTVEKYRKLVFDKYHILLYQVKDQVVYVEYVIDGRQ	-0.94
HMETLKINTHLGTLNLKKRGKKGTWQINIYFKNIEGDNHYRQSTGTNQLELAKAKAMNMITTEYSNRLAGI	-1.67
HMAITYETKVISGVNLRSAPSTSASVYQLIPKGENIHVVQKVNDYWLKVQTKDGKTGYISASSKYTNYIG	-2.7
HMQKKYLAVKEYLLEQINSGAYQPDEPIPPEREMAAMLGVNRMTLRRAVEELMYEGLLIRKKGSGTFLTK	-2.03
HMQRSVEDVFVQLRNGMDTYDMTQIEDALRILHGMELSTAQRDLLDKVQEAYNDLEYETGAALLAGFERIK	0.134
HMQLNNTDELEKIILKILENNPKQVDQFLAGKQKLLGFFVGQAMRATSGKANPKTVNDLLEKFLSK	0.027
HMGTPLYLLLAAEVRDRIATEQLAPHTAVPSERELAELHGVSRMTARQALALLESEGLVYRNPPRGTFVAE	-1.15
HMETYEFNITDKEQTGMRVDKLLPELNSDWSRNQIQDWIKAGLVVANDKVVKSNYKVKLNDHIVVTEKEV	0.0567
